Measured Population Mitotic Cells (%), listed per entry.
Test system: Fibroblast
assay.procedure: Multiplex assay against human fibroblast
Format: toxicity, cell-based
condition.context: 12 h, 1 µM, compound concentration 1 uM, replicate 2
The figure you give is taken to be in %; do not add the unit.

What measured Population Mitotic Cells (%) goes with CN1CCN(c2cc(-c3ccccc3)nc(N)n2)CC1 ?
62

What measured Population Mitotic Cells (%) goes with CC(C)(C)c1cc(NC(=O)Nc2ccc(-c3cn4c(n3)sc3cc(OCCN5CCOCC5)ccc34)cc2)no1 [QUIZARTINIB] ?
58

What measured Population Mitotic Cells (%) goes with O=C1[C@H](Cc2ccc(O)cc2)N2C(=O)CCN(C(=O)NCc3ccccc3)[C@H]2CN1Cc1cccc2ccccc12 ?
69

What measured Population Mitotic Cells (%) goes with CC(C)c1noc(N2CCC(COc3ccc(-c4ccc(S(C)(=O)=O)cc4)nc3)CC2)n1 [GSK-1292263] ?
70

What measured Population Mitotic Cells (%) goes with CN(C)C(=O)Cn1cc(-c2ccc(-c3cncc4ccccc34)cc2)cn1 ?
67

---
What measured Population Mitotic Cells (%) goes with Cc1c(CC(=O)O)c2cccnc2n1Cc1ccc(S(C)(=O)=O)cc1C(F)(F)F [FEVIPIPRANT] ?
74

What measured Population Mitotic Cells (%) goes with CCCOc1ccc2[nH]cc(C3=CCNCC3)c2n1.Cl ?
51

What measured Population Mitotic Cells (%) goes with Br.CS(=O)(=O)Nc1c(O)ccc2c1CCCC2C1=NCCN1 (stereo unspecified) ?
68

What measured Population Mitotic Cells (%) goes with CCCCC(=O)N(Cc1ccc(-c2ccccc2-c2nnn[nH]2)cc1)[C@H](C(=O)O)C(C)C ?
55

What measured Population Mitotic Cells (%) goes with CC(/C=C1\SC(=S)N(CCCC(=O)Nc2ccc(C(=O)O)c(O)c2)C1=O)=C\c1ccccc1 ?
66

What measured Population Mitotic Cells (%) goes with CCCCC1=NC2(CCCC2)C(=O)N1Cc1ccc(-c2ccccc2-c2nnn[nH]2)cc1 [IRBESARTAN] ?
61

###

Measured Population Hoechst High Intensity Objects (%), listed per entry.
Tested on: Fibroblast
assay.procedure: Multiplex assay against human fibroblast
Assay type: toxicity, cell-based
condition.context: 48 h, 10 µM, compound concentration 10 uM, replicate 2

Use these answered entries as a reference point.
What measured Population Hoechst High Intensity Objects (%) goes with CCCOc1ccc2[nH]cc(C3=CCNCC3)c2n1.Cl ?
5%

What measured Population Hoechst High Intensity Objects (%) goes with CN(C)C(=O)Cn1cc(-c2ccc(-c3cncc4ccccc34)cc2)cn1 ?
0%

What measured Population Hoechst High Intensity Objects (%) goes with COC[C@@H](c1ccc(C(F)(F)F)cc1)N1CCN(C2(C)CCN(C(=O)c3c(C)ncnc3C)CC2)C[C@@H]1C.O=C(O)/C=C\C(=O)O [VICRIVIROC MALEATE] ?
20%

Now take the following molecule into account.
What measured Population Hoechst High Intensity Objects (%) goes with Cc1sc2c(c1C)C(c1ccc(Cl)cc1)=N[C@@H](CC(=O)NCCCCCCCCNC(=O)COc1cccc3c1C(=O)N(C1CCC(=O)NC1=O)C3=O)c1nnc(C)n1-2 (some centres undefined) ?
15%

###

System: HEK-293T
assay.procedure: Multiplex assay against HEK293T
Assay type: toxicity, cell-based
condition.context: human, 48 h, 1 µM, compound concentration 1 uM, replicate 2
metric: Population Healthy Nuclei (%)
The figure you give is taken to be in %; do not add the unit.

Use these answered entries as a reference point.
Item: Cc1cnc(-c2cc(N3CCN(C(=O)CCS(C)(=O)=O)CC3)ncc2Cl)c(C)c1 Test system: HEK-293T Read-out: Population Healthy Nuclei (%) Value: ?
78

Item: CCCOc1ccc2[nH]cc(C3=CCNCC3)c2n1.Cl Test system: HEK-293T Read-out: Population Healthy Nuclei (%) Value: ?
82

Item: CCCCCC(O)/C=C/[C@H]1C(=O)CC(O)C1C/C=C\CCCC(=O)O (stereo not given in full) Test system: HEK-293T Read-out: Population Healthy Nuclei (%) Value: ?
81

Item: Cl.N=C(N)NC(=O)Cc1c(Cl)cccc1Cl [GUANFACINE HYDROCHLORIDE] Test system: HEK-293T Read-out: Population Healthy Nuclei (%) Value: ?
79

Item: NCCc1cn(S(=O)(=O)c2c(Cl)nc3sccn23)c2ccccc12.O=C(O)C(=O)O Test system: HEK-293T Read-out: Population Healthy Nuclei (%) Value: ?
82

---
Item: N#Cc1c(Oc2cccc(OS(=O)(=O)CCCC(F)(F)F)c2)cccc1C(F)(F)F Test system: HEK-293T Read-out: Population Healthy Nuclei (%) Value: ?
82

Item: CCCCC(=O)N(Cc1ccc(-c2ccccc2-c2nnn[nH]2)cc1)[C@H](C(=O)O)C(C)C Test system: HEK-293T Read-out: Population Healthy Nuclei (%) Value: ?
79

Item: Cc1c(CC(=O)O)c2cccnc2n1Cc1ccc(S(C)(=O)=O)cc1C(F)(F)F Test system: HEK-293T Read-out: Population Healthy Nuclei (%) Value: ?
82

Item: O=C(CCCc1ccccc1)Nc1nc2ccccc2c(=O)s1 Test system: HEK-293T Read-out: Population Healthy Nuclei (%) Value: ?
80
